FYI, the data here is from ChEMBL document CHEMBL1201862.

Biological target: UniProt:Q9XUB2
Sequence (Q9XUB2 whole entry): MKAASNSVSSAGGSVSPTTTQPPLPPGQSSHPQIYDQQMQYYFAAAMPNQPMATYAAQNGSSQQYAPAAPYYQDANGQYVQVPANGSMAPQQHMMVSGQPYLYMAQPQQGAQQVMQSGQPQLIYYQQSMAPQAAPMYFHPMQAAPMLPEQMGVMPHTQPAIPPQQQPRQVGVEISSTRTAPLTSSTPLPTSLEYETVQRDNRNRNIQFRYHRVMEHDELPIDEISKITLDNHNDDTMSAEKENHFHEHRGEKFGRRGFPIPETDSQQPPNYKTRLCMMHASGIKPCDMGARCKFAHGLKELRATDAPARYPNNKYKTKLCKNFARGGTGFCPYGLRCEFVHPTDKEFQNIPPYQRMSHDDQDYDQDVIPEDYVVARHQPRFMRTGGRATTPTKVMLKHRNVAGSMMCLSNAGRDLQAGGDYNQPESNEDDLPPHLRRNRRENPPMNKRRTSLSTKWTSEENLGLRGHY
Assay: potency of MEX-5 RNA-binding blockers – biochemical, C. elegans, fluorescence polarization, dose response (AID 1960)
The source made the active and inactive calls.
ENDPOINT LABEL: EC50

COMPOUND | ENDPOINT LABEL | VALUE MEASURED
COc1ccccc1-c1cnn2c(NCc3ccccc3)cc(C)nc12 | EC50 | > 300 µM (not active)
CC1(OC(=O)c2cccs2)C(=O)C=C2C=C(c3ccc(C#N)cc3)OC=C2C1=O (stereo unspecified) | EC50 | 31.3 µM (active)
COc1ccc(N2C(=O)C(Cl)=C(Nc3ccccc3O)C2=O)cc1 | EC50 | 24.5 µM (active)
COc1ccc(-c2nnc(-c3cc4c(ccc5ccccc54)oc3=O)o2)cc1 | EC50 | > 300 µM (inconclusive)
O=C(O)CCCN1C(=O)/C(=C/c2ccc(-c3nc4ccccc4s3)o2)SC1=S | EC50 | 20.4 µM (active)
Cc1ccc(/C=C2\Oc3c(ccc(O)c3CN3CCN(C)CC3)C2=O)cc1 | EC50 | 153 µM (active)
O=c1c(/C=C(\O)c2ccccc2)nc2ccccc2n1-c1ccccc1 | EC50 | 6.1 µM (inconclusive)
CSC1=NSC2=NC(=O)/C(=C\c3c[nH]c4ccccc34)C(=N)N12 | EC50 | 17.9 µM (inconclusive)
CCOc1ccccc1NC(=O)Nc1ccc(OC)nc1 | EC50 | 29.5 µM (active)
Cc1ccc(-c2ccccc2)n1-c1ccc(C(=O)O)cc1 | EC50 | > 300 µM (not active)
O=C(N/N=C\c1cc([N+](=O)[O-])ccc1N1CCCC1)c1ccccn1 | EC50 | 70.5 µM (inconclusive)

----------
Quick reference for IC50 among some molecules
Molecular target: Genome polyprotein (dengue virus type 2, UniProt P29990)
Assay: flavivirus cap methylation enzyme inhibition – biochemical, confirmation dose response, primary screen (AID 588689)
Type: functional
Active and inactive are the calls of the source.
ENDPOINT LABEL: IC50

MOLECULE | TEST SYSTEM | VALUE MEASURED
CSC1=NSC2=NC(=O)/C(=C\c3c[nH]c4ccccc34)C(=N)N12 | Genome polyprotein (dengue virus type 2, UniProt P29990) | > 100 µM (active)
O=C(c1ccccc1)c1ccc(O)c(O)c1O | Genome polyprotein (dengue virus type 2, UniProt P29990) | 57.7 µM (active)
Cc1ccc(N2NC(=O)/C(=C/c3ccc(-c4ccc(Cl)c(C(=O)O)c4)o3)C2=O)cc1C | Genome polyprotein (dengue virus type 2, UniProt P29990) | 79.1 µM (active)
CCOc1ccc(/C=C/c2nc(O)nc(O)c2[N+](=O)[O-])cc1 | Genome polyprotein (dengue virus type 2, UniProt P29990) | 45.9 µM (active)
Cc1ccc(/C=C2\SC(=S)N(C(Cc3ccccc3)C(=O)O)C2=O)cc1 (stereo unspecified) | Genome polyprotein (dengue virus type 2, UniProt P29990) | 39.1 µM (active)
CCn1c(C)nc2cc(C(=O)N/N=C/c3ccc(O)c(O)c3O)ccc21 | Genome polyprotein (dengue virus type 2, UniProt P29990) | 21.7 µM (active)
COc1ccc(/C=C2/C(=O)NC(=O)N(c3ccccc3)C2=O)cc1CN1C(=O)c2ccccc2C1=O | Genome polyprotein (dengue virus type 2, UniProt P29990) | 73.9 µM (active)
CCc1ccc(S(=O)(=O)ON2C(=O)c3ccccc3C2=O)cc1 | Genome polyprotein (dengue virus type 2, UniProt P29990) | > 100 µM (active)
COc1ccc(N2C(=O)C(Cl)=C(Nc3ccccc3O)C2=O)cc1 | Genome polyprotein (dengue virus type 2, UniProt P29990) | 78 µM (active)
O=C(O)c1ccc(Nc2nc3ccccc3nc2NS(=O)(=O)c2ccc(F)cc2)cc1 | Genome polyprotein (dengue virus type 2, UniProt P29990) | 24.9 µM (active)
CC(C)c1nnc(NC(=O)c2nc(S(=O)(=O)Cc3ccccc3)ncc2Cl)s1 | Genome polyprotein (dengue virus type 2, UniProt P29990) | > 100 µM (active)

----------
Target: Cytochrome P450 3A4 (Homo sapiens);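 note: CYP3A4 tested as one member of a cytochrome P450 panel screen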
Sequence (P08684 whole entry): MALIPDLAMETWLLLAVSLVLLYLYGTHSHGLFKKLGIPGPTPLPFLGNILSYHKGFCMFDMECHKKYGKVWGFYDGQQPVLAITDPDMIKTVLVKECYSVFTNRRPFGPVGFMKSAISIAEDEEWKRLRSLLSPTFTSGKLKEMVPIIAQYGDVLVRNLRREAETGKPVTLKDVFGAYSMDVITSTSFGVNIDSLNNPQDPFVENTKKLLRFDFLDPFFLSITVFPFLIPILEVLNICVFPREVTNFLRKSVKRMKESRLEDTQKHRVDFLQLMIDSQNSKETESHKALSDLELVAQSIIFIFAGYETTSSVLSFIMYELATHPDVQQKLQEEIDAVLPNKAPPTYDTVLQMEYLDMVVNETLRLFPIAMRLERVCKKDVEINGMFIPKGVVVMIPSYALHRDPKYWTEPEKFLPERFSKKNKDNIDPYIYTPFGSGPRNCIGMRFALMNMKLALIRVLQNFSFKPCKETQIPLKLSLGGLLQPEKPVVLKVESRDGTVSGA

COMPOUND | TEST SYSTEM | AC50
CSc1nc2ccc3nc(NC(=O)c4cccs4)sc3c2s1 | Cytochrome P450 3A4 (Homo sapiens) | 20 µM (inconclusive)
Cn1c(=O)c2c(nc(Cl)n2Cc2ccc(Cl)c(Cl)c2)n(C)c1=O | Cytochrome P450 3A4 (Homo sapiens) | 15.8 µM (inconclusive)
COCCNC(=O)c1onc(CSc2ccc(Cl)cc2)c1C(=O)O | Cytochrome P450 3A4 (Homo sapiens) | 15.8 µM (inconclusive)
N#C/C(=N\O)c1nc(-c2ccccc2)cs1 | Cytochrome P450 3A4 (Homo sapiens) | 15.8 µM (inconclusive)
CCN1C(=O)c2cccc3c(NC(=O)c4cccc(N5C(=O)CCC5=O)c4)ccc1c23 | Cytochrome P450 3A4 (Homo sapiens) | 22.4 µM (inconclusive)
O=C(Oc1ccc(OC(=O)c2ccco2)c(S(=O)(=O)c2ccc(Br)cc2)c1)c1ccco1 | Cytochrome P450 3A4 (Homo sapiens) | 5.62 µM (inconclusive)
CCCCN=C(S)NNC(=O)c1csc2c1CCC(C)C2 (configuration not stated) | Cytochrome P450 3A4 (Homo sapiens) | 15.8 µM (inconclusive)

----------
Biological target: Cytochrome P450 2D6 (Homo sapiens);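 note: CYP2D6 member of a cytochrome P450 panel assay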
Sequence (P10635 whole entry): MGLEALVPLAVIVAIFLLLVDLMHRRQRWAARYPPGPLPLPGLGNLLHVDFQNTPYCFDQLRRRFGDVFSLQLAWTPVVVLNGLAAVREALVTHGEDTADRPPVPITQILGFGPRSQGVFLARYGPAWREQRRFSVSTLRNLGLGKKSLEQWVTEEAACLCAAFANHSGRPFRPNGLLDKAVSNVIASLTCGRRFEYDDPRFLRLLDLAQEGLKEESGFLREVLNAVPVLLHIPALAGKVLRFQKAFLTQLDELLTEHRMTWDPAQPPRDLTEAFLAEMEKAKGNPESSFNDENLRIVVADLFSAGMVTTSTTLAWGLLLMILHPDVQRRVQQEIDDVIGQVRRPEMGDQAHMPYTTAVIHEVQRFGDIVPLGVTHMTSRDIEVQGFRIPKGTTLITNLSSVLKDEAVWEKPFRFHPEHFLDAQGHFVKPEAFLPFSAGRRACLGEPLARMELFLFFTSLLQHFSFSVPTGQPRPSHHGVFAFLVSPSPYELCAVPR
ENDPOINT LABEL: AC50

COMPOUND | TEST SYSTEM | VALUE MEASURED
COc1ccccc1CCn1c(=O)c(-c2ccccc2)nc2cncnc21 | Cytochrome P450 2D6 (Homo sapiens) | 12.6 µM (inconclusive)
CC(C)c1ccc(/C=N/NC(=O)CN(c2cccc(Cl)c2Cl)S(C)(=O)=O)cc1 | Cytochrome P450 2D6 (Homo sapiens) | 28.2 µM (inconclusive)
CCOC(=O)N1CCN(C(=O)c2oc3ccc(S(=O)(=O)N4CCCCC4)cc3c2C)CC1 | Cytochrome P450 2D6 (Homo sapiens) | 20 µM (inconclusive)
CCCCN=C(S)NNC(=O)c1csc2c1CCC(C)C2 (stereo not given) | Cytochrome P450 2D6 (Homo sapiens) | 22.4 µM (inconclusive)
CCN(CC)c1ccc2c(c1)OC(N)=C(C#N)C2c1cccnc1 (stereo not given) | Cytochrome P450 2D6 (Homo sapiens) | 15.8 µM (inconclusive)
O=C(N/N=C/c1ccc(F)cc1)c1ccc(Br)cc1 | Cytochrome P450 2D6 (Homo sapiens) | 3.55 µM (inconclusive)
CN1CC[C@@]2(CCN3CCc4c(oc5ccccc45)[C@@H]3C2)N(C)C1=O | Cytochrome P450 2D6 (Homo sapiens) | 31.6 µM (inconclusive)
OCCN(Cc1ccccc1)Cc1cccc(Cl)c1Cl | Cytochrome P450 2D6 (Homo sapiens) | 1.58 µM (inconclusive)
N=C(N)NC(=O)c1nc(Cl)c(N2CCCCCC2)nc1N [N,N-HEXAMETHYLENEAMILORIDE] | Cytochrome P450 2D6 (Homo sapiens) | 39.8 µM (inconclusive)
COc1cccc(Cn2c(=O)c(-c3ccc(Cl)cc3)nc3cnc(N4CCNCC4)nc32)c1 | Cytochrome P450 2D6 (Homo sapiens) | 39.8 µM (inconclusive)

----------
EC50 by entry:
Test: Trypanosoma cruzi growth suppression in host cells – NIH3T3 host cells, beta-gal luminescence, confirmation (AID 2044);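 note: intracellular parasites grown in NIH/3T3 mouse fibroblasts as host cells; luminescent beta-galactosidase reporter signal from transgenic T. cruzi replicating inside host cells; inhibitors lower the luminescence signal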
Format: functional, cell-based
The source made the active and inactive calls.

COMPOUND | EC50
COc1ccc(-c2c[n+](CC(=O)N3c4ccccc4Sc4ccccc43)c3n2CCC3)cc1 | 0.648 µM (active)
CN1CCN(c2nc(-c3ccc(Br)cc3)nnc2-c2ccccc2)CC1 | < 0.1 µM (active)
CCN(c1ccccc1)S(=O)(=O)c1ccc(Cl)c(NC(=O)CN(C)C2CCN(C)CC2)c1 | 0.395 µM (active)
COc1cccc(Oc2nc(-c3ccncc3)nc3ccccc23)c1 | 2.41 µM (active)
O=[N+]([O-])c1ccc(Nc2nc(NC3CCCCC3)nc(N3CCCC3)n2)cc1 | 1.75 µM (active)
COC(=O)c1ccc(-c2noc(CN(Cc3ccncc3)CC3CCCO3)n2)cc1 (stereo not given) | 2.46 µM (active)
CN(C)C=O.O=[N+]([O-])c1cccc(COc2ncnc3cc([N+](=O)[O-])ccc23)c1 | 1.93 µM (active)
CC(C)NCC(O)COC1C2CC3CC(C2)CC1C3 (stereo not given) | 1.14 µM (active)
Cc1cccc(NC(=S)N(CCc2nc3cc(C)c(C)cc3[nH]2)Cc2cccnc2)c1 | 0.853 µM (active)
Clc1ccc(COc2cccc(CNCc3ccncc3)c2)cc1 | 3.42 µM (active)
